Data credit: PubChem BioAssay (NCI)

tested on: BT-549 breast; assay: NCI-60 one-dose screen, 48 h; conditions: 10 µM unless noted
This is part of a sample that, as a whole, favours compounds with a hit. Of some 83,000 tested, about 20% had one in any assay. Calls of active or inactive are those of the source. How the source made its calls: active means growth percent below 10; inactive means the rest.
Outcomes: active, inactive

> print(dat)
                                smiles.code  assigned.label
1  C=C(CN1CCc2c([nH]c3ccccc23)C1)c1ccc(C(=O)Nc2ccon2)cc1        inactive
2  COc1cnc2c(c1)C(=O)c1c-2n(CCCN2CCOCC2)c(=O)c2cc(F)ccc12        inactive
3  CCOC(=O)/C(=C/CC/C(C)=C/CC/C(C)=C/CCc1ccoc1)CC(=O)N1CCCCC1        inactive
4  COC(=O)[C@H](CCCCNC(=O)OCc1ccccc1)NC(=O)[C@@H](NC(=O)Nc1cc(C(F)(F)F)cc(C(F)(F)F)c1)C(C)C        inactive
5  CC(C)OP(=O)(OC(C)C)c1ncc(-c2ccc(C(F)(F)F)cc2)c(NC2CCCCCC2)n1          active

----------
Property: growth; scope: individual molecules
tested on: PC-3 prostate; assay: NCI-60 one-dose screen, 48 h (100 = growth as untreated, 0 = no growth, -100 = all killed); conditions: 10 µM unless noted
About 83,000 compounds went through this panel and 20% of them were active in at least one assay; those are over-represented in the sample as a whole. Active and inactive are the calls of the source. Rule for the calls: active = growth percent below 10; inactive = the rest.
measurement.name: growth

> print(dat)
                                   molecule  measurement.name     readout.value
1  C/C(=C\CCc1ccoc1)CC/C=C(\C)CCCNc1ccc(F)cc1            growth  94.9% (inactive)
2          O=c1c2ccccc2c2nccn2c2cc(Cl)ccc12            growth  72.5% (inactive)
3  C=C1CCC2C(C)(COC(=O)CC)C(OC(=O)CC)CCC2(C)C1C/C=C1/C(=O)OCC1OC(=O)CC (stereo not given)            growth  27.7% (inactive)
4  Cc1ccc(C2=Nc3c(ccc4c(C)c(C)c(=O)oc34)OC2)cc1            growth  88.9% (inactive)
5  Cc1ccc(NC(=O)c2sc3nc4c(cc3c2N)C(=O)CCC4)cc1            growth  73.2% (inactive)

----------
tested on: 786-0 renal; assay: NCI-60 one-dose screen, 48 h; settings: 10 µM unless noted
This is part of a sample that, as a whole, favours compounds with a hit. Of some 83,000 tested, about 20% had one in any assay. Calls of active or inactive are those of the source. The calls were made as follows: active = growth percent below 10; inactive = the rest.
Outcome codes: 1 = active, -1 = inactive

> print(dat)
                                    molecule  system.under.test  assigned.label
 1                    NC(=O)NC1(C(=O)O)CCCC1        786-0 renal              -1
 2  O=C1C(=O)/C(=C/c2ccccc2)CCCCCC/C1=C/c1ccccc1        786-0 renal              -1
 3          Cc1sc2nc(N3CCCCC3)[nH]c(=O)c2c1C        786-0 renal              -1
 4  NC(=O)c1cc(Br)cc(Br)c1NS(=O)(=O)c1ccccc1        786-0 renal              -1
 5  CCCc1n(Cc2ccc3ccccc3c2)cc[n+]1Cc1ccc2ccccc2c1        786-0 renal               1
 6  Cc1ccc2nc(SCC(=O)Nc3ccc(-c4nc5ccccc5s4)c(Cl)c3)[nH]c2c1        786-0 renal              -1
 7     CCSc1nc(-c2ccc(F)cc2)c(C#N)c(=O)[nH]1        786-0 renal              -1
 8        Nc1ccc(N=Nc2ccccc2)cc1[N+](=O)[O-]        786-0 renal              -1
 9  C[C@H](C(=O)N[C@@H](Cc1ccc(-c2ccccc2)cc1)C(=O)NC1CC(C)(C)NC(C)(C)C1)c1ccc(-c2ccccc2)c(F)c1        786-0 renal               1
10  CCCCCc1c(C)[nH]c(/C=C2\N=C(c3ccc[nH]3)C=C2Oc2ccc(Cl)cc2)c1C        786-0 renal               1
11  CN1CCN(CCCOc2ccc3ncnc(Nc4ccc(OCc5cccc(F)c5)c(Cl)c4)c3c2)CC1        786-0 renal               1
12  COc1ccc2c(c1)CC/C(=C\c1ccc(OCC(=O)Nc3nc4ccccc4s3)cc1)C2=O        786-0 renal              -1
13  CC1CN(CC(O)c2ccc(Br)cc2)CCO1 (stereo unspecified)        786-0 renal              -1
14      CCSc1nc(-c2ccco2)n2nc(-c3ccco3)cc2n1        786-0 renal              -1
15  COc1cnc2c(c1)C(=O)c1c-2n(CCCN2CCNCC2)c(=O)c2cc(F)ccc12        786-0 renal               1
16  O=C(Nc1ccc2c(c1)C(=O)c1ccccc1-2)c1ccccc1        786-0 renal              -1
17  c1ccc(-c2n(Cc3ccc4ccccc4c3)cc[n+]2Cc2ccc3ccccc3c2)cc1        786-0 renal               1
18  O=C(CSc1ncc(-c2ccccc2)n1-c1ccccc1)Nc1ccc(-c2nc3ccccc3s2)cc1        786-0 renal              -1
19  O=c1oc2c(cc1-c1ccc([N+](=O)[O-])cc1)C(O)Oc1ccccc1-2 (stereo unspecified)        786-0 renal              -1
20  COc1ccc(CNC(=O)c2c(C)n([O-])c3cc(F)c(F)cc3[n+]2=O)cc1        786-0 renal              -1
21     CCOC(=O)Nc1ccc2c3c(cccc13)-c1ccccc1-2        786-0 renal              -1
